Hey, just so you know, these numbers are from patent US8084457B2.

Readings of IC50 for the listed compounds
Biological target: CDK2/CyclinA (Homo sapiens, UniProt P24941)
Assay: Kinase assay determining CDK2/CyclinA activity
Conditions: read-out: CDK2 (activity range)

Look over these answered cases.
compound	IC50
COc1ccccc1-c1cc(Nc2ccc(NC(=O)c3ccncc3)cc2)ncn1 [(50)]	10000 to 250000 nM
COc1ccccc1-c1cc(Nc2ccc(C(=O)N[C@@H]3CCCC[C@H]3N)cc2)ncn1 (racemic) [(83)]	1000 to 10000 nM
COc1ccc(-c2cc(Nc3ccc(NC(=O)c4ccc(N)cc4)cc3)ncn2)cc1 [(6)]	1000 to 10000 nM
CC(C)(C)C(=O)Nc1ccc(Nc2cc(-c3ccccc3C(F)(F)F)ncn2)cc1 [(114)]	10000 to 250000 nM

Prompt: Can you look up the measured IC50 of COc1ccccc1-c1cc(Nc2ccc(NC(=O)NC3CCCCC3)cc2)ncn1 [(38)] for me?
Completion: 1000 to 10000 nM

====

Molecular target: CDK2/CyclinA (Homo sapiens)
Assay: Kinase assay determining CDK2/CyclinA activity
Conditions: read-out: CDK2 (activity range)
measured_parameter: IC50

smiles_record	IC50
Cc1ccc(Nc2cc(-c3cccc(CO)c3)ncn2)cc1NS(C)(=O)=O	1 to 10 µM
Cc1ccc(Nc2cc(-c3cccc(C=O)c3)ncn2)cc1NS(C)(=O)=O	1 to 10 µM

API: the following record is the query input.
Prompt: Can you look up the measured IC50 of "COc1ccccc1-c1ncnc(Nc2ccc(N)cc2)c1C" for me?
Completion: 10 to 250 µM

====

Readings of IC50 for the listed compounds
Target: CDK9/Cyclin T1 (Homo sapiens)
Sequence (P50750 whole entry): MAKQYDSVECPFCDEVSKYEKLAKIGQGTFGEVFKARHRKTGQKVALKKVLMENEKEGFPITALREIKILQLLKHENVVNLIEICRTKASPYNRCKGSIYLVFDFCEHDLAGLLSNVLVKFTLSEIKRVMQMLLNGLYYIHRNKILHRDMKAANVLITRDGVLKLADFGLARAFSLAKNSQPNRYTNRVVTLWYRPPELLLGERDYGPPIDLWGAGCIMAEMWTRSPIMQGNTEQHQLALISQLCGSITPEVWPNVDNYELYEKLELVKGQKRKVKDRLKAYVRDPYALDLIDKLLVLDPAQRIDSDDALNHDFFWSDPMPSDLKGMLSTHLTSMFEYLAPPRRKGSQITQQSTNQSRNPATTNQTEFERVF
Sequence (O60563 whole entry partner): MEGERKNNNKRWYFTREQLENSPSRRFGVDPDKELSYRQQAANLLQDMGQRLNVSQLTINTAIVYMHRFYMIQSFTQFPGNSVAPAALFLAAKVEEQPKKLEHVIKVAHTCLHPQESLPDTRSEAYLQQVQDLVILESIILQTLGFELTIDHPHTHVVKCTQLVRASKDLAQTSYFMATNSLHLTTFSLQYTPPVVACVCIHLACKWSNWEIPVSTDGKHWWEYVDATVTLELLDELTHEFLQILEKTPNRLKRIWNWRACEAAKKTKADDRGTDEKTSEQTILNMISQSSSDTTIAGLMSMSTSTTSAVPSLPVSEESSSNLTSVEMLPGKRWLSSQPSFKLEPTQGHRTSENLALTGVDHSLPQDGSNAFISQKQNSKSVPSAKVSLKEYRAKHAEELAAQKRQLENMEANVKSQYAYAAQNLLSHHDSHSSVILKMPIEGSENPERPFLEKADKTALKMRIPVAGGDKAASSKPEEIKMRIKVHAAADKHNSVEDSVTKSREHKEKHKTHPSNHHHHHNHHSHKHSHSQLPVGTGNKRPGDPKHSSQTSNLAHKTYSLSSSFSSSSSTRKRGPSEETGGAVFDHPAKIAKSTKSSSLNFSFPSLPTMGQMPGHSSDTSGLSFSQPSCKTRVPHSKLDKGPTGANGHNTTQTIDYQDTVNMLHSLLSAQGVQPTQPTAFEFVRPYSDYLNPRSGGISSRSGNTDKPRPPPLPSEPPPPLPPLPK
Assay: Kinase assay using CDK9/Cyclin T1
Conditions: read-out: CDK9 (activity range)

Look over these answered cases.
compound	val
COc1ccccc1-c1cc(Nc2ccc(C(=O)Nc3ccc(O)cc3)cc2)ncn1	1 to 1000 nM
COc1ccccc1-c1cc(Nc2ccc(NC(=O)c3ccc(N)cc3)cc2)nc(N)n1	1000 to 10000 nM
COc1ccccc1-c1cc(Nc2cccc(S(C)(=O)=O)c2)ncn1	1 to 1000 nM
COc1ccccc1-c1cc(Nc2ccc(NC(=O)c3cc4ccccc4oc3=O)cc2)ncn1	10000 to 250000 nM

Prompt: Can you look up the measured IC50 of "COc1ccccc1-c1cc(Nc2ccc(NC(=O)c3ccc4ccccc4n3)cc2)ncn1" for me?
Completion: 1 to 1000 nM

Prompt: Can you look up the measured IC50 of "Cc1ccc(Nc2cc(-c3ccccc3CO)ncn2)cc1NS(C)(=O)=O" for me?
Completion: 1000 to 10000 nM

Prompt: Can you look up the measured IC50 of "CC[C@H](C)[C@H](N)C(=O)Nc1ccc(Nc2cc(-c3ccccc3OC)ncn2)cc1" for me?
Completion: 1 to 1000 nM

Prompt: Can you look up the measured IC50 of "COc1ccccc1-c1cc(Nc2ccc(NC(=O)c3nc4ccccc4s3)cc2)ncn1" for me?
Completion: 1000 to 10000 nM

Prompt: Can you look up the measured IC50 of COc1ccccc1-c1cc(Nc2ccc(C(=O)N[C@@H]3CCCC[C@H]3N)cc2)ncn1 (racemic) for me?
Completion: 1 to 1000 nM

Prompt: Can you look up the measured IC50 of "COc1ccccc1-c1cc(Nc2ccc(NC(=O)c3ccc(N4CCN(C)CC4)cc3)cc2)ncn1" for me?
Completion: 1 to 1000 nM
